Km for assorted molecules
- Test system: MUN-1 beta-lactamase
- Construct: gene blaMUN-1; full gene cloned in pTOPO-kanR, expressed in E. coli TOP10, purified by ion exchange; no tag mentioned
- EXPERIMENT_NOTES: hydrolysis kinetics, purified beta-lactamase
- Assay type: biochemical, Escherichia coli
- MEASUREMENT_CONDITIONS: details in supplement; read-out: Kinetic measurement / Km
- Description: hydrolysis kinetics, purified beta-lactamase on MUN-1 beta-lactamase

These solved cases illustrate the format of a correct answer.
CHEMICAL_STRING | Km
CC1(C)S[C@@H]2[C@H](NC(=O)[C@H](N)c3ccccc3)C(=O)N2[C@H]1C(=O)O | 280 µM
CC(=O)OCC1=C(C(=O)O)N2C(=O)[C@@H](NC(=O)Cc3cccs3)[C@H]2SC1 | 15 µM
CC1(C)S[C@@H]2[C@H](NC(=O)Cc3ccccc3)C(=O)N2[C@H]1C(=O)O | 95 µM

Here's the next entry for you.
Req: Quote Km with test system MUN-1 beta-lactamase for C[C@H]1[C@H](NC(=O)/C(=N\OC(C)(C)C(=O)O)c2csc(N)n2)C(=O)N1S(=O)(=O)O
Resp: 45 µM

====

- MEASURED_ON: MUN-1 beta-lactamase
- Construct: full gene cloned in pTOPO-kanR, expressed in E. coli TOP10, purified by ion exchange; no tag mentioned
- EXPERIMENT_NOTES: beta-lactamase inhibition
- MEASUREMENT_CONDITIONS: covalent (known mechanism); reporter substrate and buffer only in supplement
READOUT_TYPE: IC50
# do not omit the unit; it follows the number

These solved cases illustrate the format of a correct answer.
CHEMICAL_STRING | READOUT_TYPE | RESULT
C[C@]1(Cn2ccnn2)[C@H](C(=O)O)N2C(=O)C[C@H]2S1(=O)=O | IC50 | 0.8 nM
NC(=O)[C@@H]1CC[C@@H]2CN1C(=O)N2OS(=O)(=O)O | IC50 | 3.8 nM

Here's the next entry for you.
Req: Please report the measured IC50 for O=C(O)[C@H]1/C(=C/CO)O[C@@H]2CC(=O)N21
Resp: 0.32 nM
